# TARGET OF ASSAY: eOD-GT8 (engineered outer domain germline-targeting version 8), monomer (HIV-1 gp120 engineered outer domain, …)
ASSAY METRIC: binding result

[[record]]
binder = "G001_gp1_V08_VRC01c_114 (antibody, V domains shown) VH: QVQLVQSGAEVKKPGASGKVSCKASGYTFTDYYMYWVRQAPGQGLEWIGWINPTSGGSNYAQKFQGRVTMTRDTSISTAYMELSRLRSDDTAVYYCARRSEDRKAFDIWGQGTMVTVSS VL: DIQMTQSPSTLSASVGDRVTITCRASQSISSWLAWYQQKPGKAPKLLIYKASSLESGVPSKFSGSGSGTEFTLTISSLQPDDFATYYCQQYDTFGQGTKLEIK"
result_value = "binds"

[[record]]
binder = "G001_gp1_V10_VRC01c_2021-0098 (antibody, V domains shown) VH: QVQLVQSGAEVKKPGASVKVSCKASGNTFSGYYMHWVRQAPGQGLEWMGWINPNSGGTNYAQKFQGWVTMTRDTSISTAYMELSRLRSDDTAVYYCARGGRSAYYSWWFDPWGQGTLVTVSS VL: EIVLTQSPGTLSLSPGERATLSCRASQSVSSSYLAWYQQKPGQAPRLLIYGAFSRATGIPDRFSGSGSGTDFTLTISRLEPEDFAVYYCQQWETFGQGTKVEIK"
result_value = "binds"

[[record]]
binder = "G001_gp1_V10_VRC01c_2021-0115 (antibody, V domains shown) VH: QVQLVQSGAEVKKPGASVKVSCNASGYTFTGYYMHWVRQAPGQGLEWMGWINPNSGGTNFAQKFQGWVTMTRDTSISTAYMELSRLRSDDTAVYYCARSIVGATIFVYWGQGTLVTVSS VL: EIVLTQSPGTLSLSPGERATLSCRASQSLSSSYLAWYQQKPGQAPRLLIYGASSRATGIPDRFSGSGSGTDFTLTISRLEPEDFAVYYCQQYGAFGPGTKVDIK"
result_value = "binds"

